- Tested on: S. aureus MW2 ΔXV
- assay_protocol: Antimicrobial susceptibility test (VITEK 2 system); further: key: R: resistant; S: susceptible
- Format: cell-based, Staphylococcus aureus
- test_settings: strain MW2 ΔXV
result_type: Antimicrobial susceptibility (R/S)

CC1(C)S[C@@H]2[C@H](NC(=O)[C@H](N)c3ccccc3)C(=O)N2[C@H]1C(=O)O: R
NC[C@H]1O[C@H](O[C@H]2[C@H](O)[C@@H](O[C@H]3O[C@H](CO)[C@@H](O)[C@H](N)[C@H]3O)[C@H](N)C[C@@H]2N)[C@H](N)C[C@@H]1O: S
CN(C)c1cc(NC(=O)CNC(C)(C)C)c(O)c2c1C[C@H]1C[C@H]3[C@H](N(C)C)C(O)=C(C(N)=O)C(=O)[C@@]3(O)C(O)=C1C2=O: S
CO[C@H]1/C=C/O[C@@]2(C)Oc3c(C)c(O)c4c(O)c(c(/C=N/N5CCN(C)CC5)c(O)c4c3C2=O)NC(=O)/C(C)=C\C=C\[C@H](C)[C@H](O)[C@@H](C)[C@@H](O)[C@@H](C)[C@H](OC(C)=O)[C@@H]1C: S
C[C@H]1COc2c(N3CCN(C)CC3)c(F)cc3c(=O)c(C(=O)O)cn1c23: S

CCC[C@@H]1C[C@@H](C(=O)N[C@@H]([C@H]2O[C@H](SC)[C@H](O)[C@@H](O)[C@H]2O)[C@H](C)Cl)N(C)C1 yielded Antimicrobial susceptibility (R/S) of S

###

- Tested on: S. aureus MW2 ΔXV
- assay_protocol: Antimicrobial susceptibility test (VITEK 2 system); further: key: R: resistant; S: susceptible
- Format: cell-based, Staphylococcus aureus
- test_settings: strain MW2 ΔXV
result_type: Antimicrobial susceptibility (R/S)

Would you please look over these solved cases?
CC(=O)OCC1=C(C(=O)O)N2C(=O)[C@@H](NC(=O)Cc3cccs3)[C@H]2SC1: R
CO[C@@]1(NC(=O)Cc2cccs2)C(=O)N2C(C(=O)O)=C(COC(N)=O)CS[C@@H]21: S
C[C@@H]1O[C@@H]1P(=O)(O)O: S
CC[C@H]1OC(=O)[C@H](C)[C@@H](O[C@H]2C[C@@](C)(OC)[C@@H](O)[C@H](C)O2)[C@H](C)[C@@H](O[C@@H]2O[C@H](C)C[C@H](N(C)C)[C@H]2O)[C@](C)(OC)C[C@@H](C)C(=O)[C@H](C)[C@@H](O)[C@]1(C)O: S

Lab note: measured Antimicrobial susceptibility (R/S) of O=C1CN(/N=C/c2ccc([N+](=O)[O-])o2)C(=O)N1 was S

###

- Tested on: S. aureus MW2
- Type: cell-based, Staphylococcus aureus
- test_settings: strain MW2
result_type: Antimicrobial susceptibility (R/S)

Previously resolved entries follow.
CN[C@H](CC(C)C)C(=O)N[C@H]1C(=O)N[C@@H](CC(N)=O)C(=O)N[C@H]2C(=O)N[C@H]3C(=O)N[C@H](C(=O)N[C@H](C(=O)O)c4cc(O)cc(O)c4-c4cc3ccc4O)[C@H](O)c3ccc(c(Cl)c3)Oc3cc2cc(c3O[C@@H]2O[C@H](CO)[C@@H](O)[C@H](O)[C@H]2O[C@H]2C[C@](C)(N)[C@H](O)[C@H](C)O2)Oc2ccc(cc2Cl)[C@H]1O: S
CC[C@H]1OC(=O)[C@H](C)[C@@H](O[C@H]2C[C@@](C)(OC)[C@@H](O)[C@H](C)O2)[C@H](C)[C@@H](O[C@@H]2O[C@H](C)C[C@H](N(C)C)[C@H]2O)[C@](C)(OC)C[C@@H](C)C(=O)[C@H](C)[C@@H](O)[C@]1(C)O: S
CN(C)c1cc(NC(=O)CNC(C)(C)C)c(O)c2c1C[C@H]1C[C@H]3[C@H](N(C)C)C(O)=C(C(N)=O)C(=O)[C@@]3(O)C(O)=C1C2=O: S
Cc1onc(-c2ccccc2)c1C(=O)N[C@@H]1C(=O)N2[C@@H]1SC(C)(C)[C@@H]2C(=O)O: R
CO[C@@]1(NC(=O)Cc2cccs2)C(=O)N2C(C(=O)O)=C(COC(N)=O)CS[C@@H]21: R

Sure, the documented Antimicrobial susceptibility (R/S) for CC1(C)S[C@@H]2[C@H](NC(=O)Cc3ccccc3)C(=O)N2[C@H]1C(=O)O is R

Record summary for CC[C@H]1OC(=O)[C@H](C)[C@@H](O[C@H]2C[C@@](C)(OC)[C@@H](O)[C@H](C)O2)[C@H](C)[C@@H](O[C@@H]2O[C@H](C)C[C@H](N(C)C)[C@H]2O)[C@](C)(O)C[C@@H](C)C(=O)[C@H](C)[C@@H](O)[C@]1(C)O : reported Antimicrobial susceptibility (R/S) = S

Lookup result for CC1(C)S[C@@H]2[C@H](NC(=O)[C@H](N)c3ccccc3)C(=O)N2[C@H]1C(=O)O ; measured Antimicrobial susceptibility (R/S): R
